Every entry's value here was drawn from the supplement of paper PMC5579334.

test system: YST-1; experiment: drug sensitivity score (DSS, CellTiter-Glo viability, 72 h) (DSS (dimensionless)); higher = more sensitive; extreme values may be limits of the assay
MEASURED_PROPERTY: drug sensitivity score
Respond numerically, and do not add a unit to the figure.

Worked set:
>>> test_value("O=C(/C=C\\n1cnc(-c2cc(C(F)(F)F)cc(C(F)(F)F)c2)n1)NNc1ccccn1 [Verdinexor] (max concentration tested 1000 nM)")
8.71
>>> test_value("O=C1NC(=O)/C(=C/c2ccc3nccc(-c4ccncc4)c3c2)S1 (max concentration tested 10000 nM)")
9.37
>>> test_value("Cc1cn(-c2cc(NC(=O)c3ccc(C)c(Nc4nccc(-c5cccnc5)n4)c3)cc(C(F)(F)F)c2)cn1 [Nilotinib] (max concentration tested 10000 nM)")
1.13
>>> test_value("O=C(c1ccc(OCCN2CCCCC2)cc1)c1c(-c2ccc(O)cc2)sc2cc(O)ccc12 [Raloxifene] (max concentration tested 10000 nM)")
1.7

What drug sensitivity score value was documented for this compound, Cc1cc(-c2nc(-c3ccc(OC(F)(F)F)cc3)no2)nn1Cc1ccnc(N2CCN(C3CC3)CC2)c1 [BAY 87-2243] (max concentration tested 1000 nM) ?
2.18

What drug sensitivity score value was documented for this compound, Nc1ncnc2c1nc(Cl)n2[C@@H]1O[C@H](CO)[C@@H](O)[C@H]1O [8-chloro-adenosine] (max concentration tested 50000 nM) ?
12.9

What drug sensitivity score value was documented for this compound, C[C@]12CC[C@H](O)CC1=CC[C@@H]1[C@@H]2CC[C@]2(C)C(c3cccnc3)=CC[C@@H]12 [Abiraterone] (max concentration tested 5000 nM) ?
0

What drug sensitivity score value was documented for this compound, CNC(=O)c1cc(Oc2ccc(NC(=O)Nc3ccc(Cl)c(C(F)(F)F)c3)c(F)c2)ccn1 [Regorafenib] (max concentration tested 10000 nM) ?
6.49

What drug sensitivity score value was documented for this compound, Cc1ncc(-c2ccnc(Nc3ccc(S(C)(=O)=O)cc3)n2)n1C(C)C [AZD-5438] (max concentration tested 10000 nM) ?
9.62

What drug sensitivity score value was documented for this compound, COc1cc(CCc2cc(NC(=O)c3ccc(N4CC(C)NC(C)C4)cc3)n[nH]2)cc(OC)c1 (stereo unspecified) [AZD4547] (max concentration tested 1000 nM) ?
0

What drug sensitivity score value was documented for this compound, COc1cc(OC)c(/C=C/S(=O)(=O)Cc2ccc(OC)c(NCC(=O)O)c2)c(OC)c1 [Rigosertib] (max concentration tested 10000 nM) ?
21.8

What drug sensitivity score value was documented for this compound, COC(=O)c1ccc2c(c1)NC(=O)/C2=C(\Nc1ccc(N(C)C(=O)CN2CCN(C)CC2)cc1)c1ccccc1 [Nintedanib] (max concentration tested 10000 nM) ?
3.79
